- assay.text: Acute toxicity (LD50) on mice
- experimental.parameters: mouse, in vivo, ip
- Method: The Letal Dose50 (LD50) was evaluated on mice using Swiss Nos (Nossan, Correzzana, Milano) mice weighing 18-20 g each. The animals, divided into groups of 10 animals each (5M+5F), were on an empty stomach for 18 hrs, with water ad libitum, and kept in cages with a grid floor. The compounds (I) were dissolved in water or suspended in 0.5% carboxymethylcellulose and intraperitioneally administered to the animals (10 ml/kg). […]
Where a name gives a salt, the structure may show the parent alone.
quantity.measured: LD50 at 336 h

Data request, read-out LD50 at 336 h, for CC(C)(C)c1ccc(C(O)CCCN2CCC(C(O)(c3ccccc3)c3ccccc3)CC2)cc1 (stereo not drawn) [Terfenadine, reference compound]
> 100 mg/kg

Next record, please: CCOCCn1c(SCCN(C)C)nc2ccccc21 [Example 3, HCl]
> 100 mg/kg

Next record, please: CCOCCn1c(SCC(C)N(C)C)nc2ccccc21 (stereo not drawn)
~100 mg/kg
